Overview of recorded viability index for various compounds
Test system: Plasmodium falciparum NF54 gametocytes
protocol: viability index relative to DMSO control (fraction); higher = less gametocyte killing
condition_label: gametocyte stage: Stage II viability index; 12.5 µM; incubation time: 72 h
Could you keep your reply to the number by itself?

Known viability index results, listed for orientation:
input_smiles	viability index
COCCNC(=O)c1ccc(OC2CCN(Cc3ccc(F)c(F)c3)CC2)c(Cl)c1	0.812
CCN(CC)CCNc1ccnc2cc3ccccc3cc12	0.0591
Nc1nc(Nc2cccc(F)c2)nc2ccccc12	0.534
Cc1ccc(-c2cc3nc4c(c(O)n3n2)CCCC4)cc1	0.804
Cc1cc(=O)oc2c1ccc1oc(C(=O)c3ccccc3)c(C)c12	1
CCCc1c(C)nc2ccc(Br)cc2c1O	0.706

Let us move to another entry and its viability index.
[in] Given CCc1c(C)c(=N)c2ccccc2n1C , state its recorded viability index.
[out] 1.01

###

Test system: Plasmodium falciparum NF54 gametocytes
protocol: viability index relative to DMSO control (fraction); higher = less gametocyte killing
condition_label: gametocyte stage: Stage V viability index; 12.5 µM; incubation time: 72 h
readout: viability index
Could you keep your reply to the number by itself?

Known viability index results, listed for orientation:
molecule	viability index
COc1ccc(C2=C(c3ccc(OC)cc3)C3(c4ccccc4)C(=O)C2(c2ccccc2)C2C(=O)N(c4ccc(C)cc4)C(=O)C23)cc1 (centres undefined)	0.967
CCOc1cc(Cl)c(C(C)NC(=O)c2ccccc2)cc1OCC (centres undefined)	0.901
CCOC(=O)c1ccc2nc(-c3ccccc3)cc(O)c2c1	1.12
COCCNC(=O)c1ccc(OC2CCN(Cc3ccc(F)c(F)c3)CC2)c(Cl)c1	0.901
O=[N+]([O-])c1ccc(C=NNc2nc3ccccc3[nH]2)cc1	0.802

[in] Given Cc1cc(Nc2cccc(F)c2)nc(NCc2ccccc2)n1 , state its recorded viability index.
[out] 0.429

[in] Entry to check: COc1ccccc1N1CCN(C(CNS(=O)(=O)c2ccc(Cl)cc2)c2cccnc2)CC1 (centres undefined)
[out] 0.912

[in] Entry to check: Cc1ccc(-c2cc3c(nn2)-c2ccccc2C3=O)cc1
[out] 1.05

[in] Entry to check: CN1C=C(c2ccc3ccccc3n2)C(c2c[nH]c3ccccc23)c2ccccc21 (centres undefined)
[out] 0.351

[in] Entry to check: FC(F)(F)c1ccc(Nc2nnnc3ccccc23)cc1
[out] 0.868

[in] Entry to check: CN1CCN(c2ccc(Nc3c4ccccc4nc4ccccc34)cc2)CC1
[out] 0.121

[in] Entry to check: Cc1ccc2c(C)nc(Nc3nc(C)cc(-c4ccccc4)n3)nc2c1
[out] 0.0519

[in] Entry to check: CN(C)c1ccc(N=Cc2ccc(N3CCOCC3)cc2)cc1
[out] 0.896

[in] Entry to check: CN1c2ccccc2N(C)C1c1ccc2c(c1)OCO2
[out] 1.03

[in] Entry to check: COc1ccc(-c2nonc2NC(=O)c2cccc(Cl)c2)cc1OC
[out] 0.187

###

System: Plasmodium falciparum NF54 gametocytes
protocol: viability index relative to DMSO control (fraction); higher = less gametocyte killing
condition_label: gametocyte stage: Stage III viability index; 12.5 µM; incubation time: 72 h
Response field label takes met when viability index is strictly below 0.9 and not met in all other cases.

Some solved entries appear below for comparison.
compound	class
O=C1CC(O)(C(F)(F)C(F)(F)F)Oc2ccccc21 (stereo not given)	not met
COc1ccc(Nc2nc(NN=Cc3ccc(O)cc3)nc(Nc3ccc([N+](=O)[O-])cc3)n2)cc1	met
CCOc1ccc(-n2cc(-c3ccccc3)c3c(SCc4cc(C)ccc4C)ncnc32)cc1	not met
COc1ccc(C2N(C)c3ccccc3N2C)cc1	not met
O=C(CCc1ccccc1)c1ccccc1OCC(O)CN1CCCCC1 (stereo not given)	met
CC(O)(c1ccc(Cl)cc1)C(CN1CCCCC1)c1ccccc1 (stereo not given)	met

[in] Field: below-cutoff. Rule: recorded viability index strictly less than 0.9. Subject: O=C1C2=C(Nc3ccccc3SC2c2ccccc2)c2ccccc21 (stereo not given)
[out] met

[in] Entry to check: COc1ccc(C2C(C(=O)Nc3cccc(OC)c3)c3ccccc3C(=O)N2C2CCCCC2)cc1 (stereo not given)
[out] met

###

System: Plasmodium falciparum NF54 gametocytes
protocol: viability index relative to DMSO control (fraction); higher = less gametocyte killing
condition_label: gametocyte stage: Stage II viability index; 12.5 µM; incubation time: 72 h
readout: viability index

input_smiles	viability index
CCCOCc1cc(CN2CCN(c3cccc(Cl)c3)CC2)c(O)c2ncccc12	0.0225
CC(=O)Nc1nnc(SCc2c(C)cc(C(C)(C)C)cc2C)s1	0.701
CCN(CC)S(=O)(=O)c1ccc(-c2csc(Nc3ccc(C)c(C)c3)n2)cc1	0.506
CCn1c(CN2CCN(Cc3ccccc3)CC2)nc2cc(NC(=O)c3cccs3)ccc21	0.837
Cc1ccccc1OCCSc1nc2ccc(NC(=O)c3cccs3)cc2s1	0.918

[in] Checklist item: viability index tested on Plasmodium falciparum NF54 gametocytes, entry CC1CCN(Cc2c(O)ccc3cc(-c4nc5ccccc5s4)c(=O)oc23)CC1 , value?
[out] 0.705

[in] Entry to check: CCOC(=O)c1cnc2ccc(OC)cc2c1NCc1ccccc1
[out] 0.535

###

Tested on: Plasmodium falciparum NF54 gametocytes
protocol: viability index relative to DMSO control (fraction); higher = less gametocyte killing
condition_label: gametocyte stage: Stage I viability index; 12.5 µM; incubation time: 72 h
readout: viability index
Could you keep your reply to the number by itself?

Known viability index results, listed for orientation:
molecule	viability index
COCCN(C(=O)Cc1cccs1)C(C(=O)NCc1ccc(OC)cc1)c1ccc(C(C)C)cc1 (stereo unspecified)	0.846
CCc1c(C)c(=N)c2ccccc2n1C	0.725
COc1ccc(-c2cc(=O)oc3c4c(ccc23)OCN(Cc2ccc(F)cc2)C4)cc1	0.0192
COc1ccc2nc(C)cc(Nc3ccc(Cl)cc3)c2c1	0.243
O=C(c1ccccc1F)N(Cc1ccc(Cl)cc1)c1ccccn1	0.716

Let us move to another entry and its viability index.
[in] Checklist item: viability index tested on Plasmodium falciparum NF54 gametocytes, entry CN1CCN(c2nc(Nc3ccc(O)cc3)nc3ccccc23)CC1 , value?
[out] 0.0262

###

Overview of recorded viability index for various molecules
Test system: Plasmodium falciparum NF54 gametocytes
protocol: viability index relative to DMSO control (fraction); higher = less gametocyte killing
condition_label: gametocyte stage: Stage III viability index; 12.5 µM; incubation time: 72 h
Could you keep your reply to the number by itself?

Known viability index results, listed for orientation:
input_smiles	quantitative_result
O=C(CSc1ccc2nnc(-c3cccc(F)c3)n2n1)Nc1ccc2c(c1)OCO2	1.16
COCCNC(=O)c1ccc(OC2CCN(Cc3ccc(F)c(F)c3)CC2)c(Cl)c1	1.07
COc1ccc(-c2nc3cc(Cc4ccc5[nH]c(-c6ccc(OC)cc6)nc5c4)ccc3[nH]2)cc1	0.864
Cc1cc(Nc2ccc(Cl)cc2)n2nc(C(F)(F)F)nc2n1	1.03
Oc1c2c(nc3ccccc13)CCCC2	0.985

[in] Given COc1cc(OC)c(N(C)C(=O)c2cc3c(s2)-c2ccccc2S(=O)(=O)C3)cc1Cl , state its recorded viability index.
[out] 0.0212

###

Overview of recorded viability index for various molecules
Test system: Plasmodium falciparum NF54 gametocytes
protocol: viability index relative to DMSO control (fraction); higher = less gametocyte killing
condition_label: gametocyte stage: Stage I viability index; 12.5 µM; incubation time: 72 h
Could you keep your reply to the number by itself?

Known viability index results, listed for orientation:
molecule	tested_on	viability index
COc1ccc(C(O)(CCC(C)C)C(CN2CCOCC2)c2ccc(Cl)cc2)cc1 (stereo not given)	Plasmodium falciparum NF54 gametocytes	1.2
CCOc1ccc(C=Cc2nc(=O)c3ccccc3o2)cc1	Plasmodium falciparum NF54 gametocytes	0.549
Cc1ccc(N2C(=O)C3C(C2=O)C2(c4ccccc4)C(=O)C3(c3ccccc3)C(c3ccccc3)=C2c2ccccc2)cc1 (stereo not given)	Plasmodium falciparum NF54 gametocytes	0.733
COc1ccc(C2C(C(=O)Nc3cccc(OC)c3)c3ccccc3C(=O)N2C2CCCCC2)cc1 (stereo not given)	Plasmodium falciparum NF54 gametocytes	0.0691
Cc1cc(Nc2ccc(C)c(Cl)c2)n2nc(C(F)(F)F)nc2n1	Plasmodium falciparum NF54 gametocytes	0.881

[in] Given COc1cc2c3cc1Oc1c(OC)c(OC)cc4c1C(Cc1ccc(O)c(c1)Oc1ccc(cc1)CC3N(C)CC2)N(C)CC4 (stereo not given) , state its recorded viability index.
[out] 0.25

###

Tested on: Plasmodium falciparum NF54 gametocytes
protocol: viability index relative to DMSO control (fraction); higher = less gametocyte killing
condition_label: gametocyte stage: Stage I viability index; 12.5 µM; incubation time: 72 h
Response field label takes rule met when viability index is strictly below 0.07 and rule not met in all other cases.

Some solved entries appear below for comparison.
molecule	class
CCCOCc1cc(CN2CCN(c3cccc(Cl)c3)CC2)c(O)c2ncccc12	rule met
CC(C)(C)c1ccc(C2CC3=Nc4ccccc4N(C(=O)c4ccccc4Cl)C(c4ccc(F)cc4)C3=C(O)C2)cc1 (stereo unspecified)	rule not met
CCN(CC)CCNc1ccnc2cc3ccccc3cc12	rule met
COc1cc2cc(C(=O)Nc3ccccc3)c(N)nc2cc1OC	rule met
O=C(Nc1ccc(-c2nc3ccccc3[nH]2)cc1)c1ccc(Cl)c(Cl)c1	rule not met
COc1ccc(C2c3ccc4ccccc4c3Oc3ncn(CCCN(C)C)c(=N)c32)cc1 (stereo unspecified)	rule met

[in] Field: below-cutoff. Rule: recorded viability index strictly less than 0.07. Subject: COc1ccc(C2c3ccc4ccccc4c3Oc3ncn(CCCn4ccnc4)c(=N)c32)cc1OC (stereo unspecified)
[out] rule met

[in] Entry to check: Cc1cc(Nc2ccc(Cl)cc2)n2nc(C(F)(F)F)nc2n1
[out] rule not met

[in] Entry to check: COc1cccc(-c2nn(C)c3sc(C(=O)NCCN4CCN(c5ccccc5F)CC4)cc23)c1
[out] rule met

[in] Entry to check: Cc1cc(=O)oc2c1ccc1oc(C(=O)c3ccccc3)c(C)c12
[out] rule not met

[in] Entry to check: COc1ccccc1N1CCN(C(CNS(=O)(=O)c2ccc(Cl)cc2)c2cccnc2)CC1 (stereo unspecified)
[out] rule not met
